tested-on: farnesol X receptor (FXR) (Homo sapiens, UniProt Q96RI1)
Construct: endogenous in cells; host or cells: HepG2
Sequence (Q96RI1 whole entry): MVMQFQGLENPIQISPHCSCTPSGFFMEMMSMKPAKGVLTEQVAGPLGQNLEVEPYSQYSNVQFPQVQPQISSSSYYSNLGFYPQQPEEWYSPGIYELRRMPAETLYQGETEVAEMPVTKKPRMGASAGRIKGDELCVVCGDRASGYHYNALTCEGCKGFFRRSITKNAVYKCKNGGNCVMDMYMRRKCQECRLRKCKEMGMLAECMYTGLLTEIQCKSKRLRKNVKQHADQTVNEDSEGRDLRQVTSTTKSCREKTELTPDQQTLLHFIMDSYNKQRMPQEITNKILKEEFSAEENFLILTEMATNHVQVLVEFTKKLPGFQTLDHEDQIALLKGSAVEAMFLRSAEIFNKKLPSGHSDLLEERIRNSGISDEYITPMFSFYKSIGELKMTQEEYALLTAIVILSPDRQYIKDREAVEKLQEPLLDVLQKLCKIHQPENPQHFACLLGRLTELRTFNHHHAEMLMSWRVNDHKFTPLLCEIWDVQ
experiment-summary: Farnesol X receptor (FXR) reporter gene assay (dual luciferase) in HepG2 cells
Assay type: cell-based
assay-setup: dose 10 uM; HepG2 cells, drug treatment 24 hours; firefly/renilla luciferase ratio, Con = 1.00
Protocol: HepG2 cells were purchased from ATCC (Manassas, VA, USA) and cultured in Dulbecco's modified Eagle's medium (DMEM; Hyclone) containing 10% fetal bovine serum (FBS, Hyclone, Logan, UT, USA), 50 units/mL penicillin (Hyclone) and 50 μg/mL streptomycin (Hyclone). All cells were cultured to have a confluency of about 80% to 90% under the conditions of 37° C. and 5% Co2. […]
Reported fold induction at 10 µM is given for each of the following compounds.
parameter: fold induction at 10 µM

structure_string=COC(=O)CCNC(=O)/C=C/c1ccc(OCc2c(-c3ccccc3)noc2C)cc1 recorded_value=1.2
structure_string=COC(=O)[C@@H](C)NC(=O)/C=C/c1ccc(OCc2c(-c3ccccc3)noc2C)cc1 recorded_value=1.34
structure_string=CCOC(=O)CNC(=O)/C=C/c1ccc(OCc2ccc(F)cc2)cc1 recorded_value=1.21
structure_string=COC(=O)[C@H](Cc1ccccc1)NC(=O)/C=C/c1ccc(OCc2c(-c3c(Cl)cccc3Cl)noc2C)cc1 recorded_value=2.21
structure_string=CC(C)c1onc(-c2c(Cl)cccc2Cl)c1COc1ccc(/C=C/C(=O)NCC(=O)O)cc1 recorded_value=3.34
structure_string=COC(=O)[C@H](Cc1ccccc1)NC(=O)/C=C/c1ccc(OCc2c(-c3ccccc3)noc2C)cc1 recorded_value=1.06
structure_string=O=C(O)CNC(=O)/C=C/c1ccc(OCc2ccc([N+](=O)[O-])cc2)cc1 recorded_value=1.28
structure_string=COC(=O)CCNC(=O)/C=C/c1ccc(OCc2c(-c3c(Cl)cccc3Cl)noc2C)cc1 recorded_value=2.21
